test system: granulocytes (Gran-lin); assay: MLTA, Gran: concentration-response and QSP model fit; type: cell-based, human; settings: Homo sapiens, 144 h; dose 25 nM, 6 days, normalized to vehicle control; read-out: Gran normalized cell count
measure-name: activity at 0.025 µM (%)

| compound | unit-descriptor | number |
| --- | --- | --- |
| CS(=O)(=O)N1CCN(Cc2cc3nc(-c4cccc5[nH]ncc45)nc(N4CCOCC4)c3s2)CC1 [pictilisib] | % | 78.6 |
| CC(=O)O[C@H]1C(=O)[C@@]2(C)[C@H]([C@H](OC(=O)c3ccccc3)[C@]3(O)C[C@H](OC(=O)[C@H](O)[C@@H](NC(=O)c4ccccc4)c4ccccc4)C(C)=C1C3(C)C)[C@]1(OC(C)=O)CO[C@@H]1C[C@@H]2O [paclitaxel] | % | 0.105 |
| CC(=O)O[C@@]12CO[C@@H]1C[C@H](O)[C@@]1(C)C(=O)[C@H](O)C3=C(C)[C@@H](OC(=O)[C@H](O)[C@@H](NC(=O)OC(C)(C)C)c4ccccc4)C[C@@](O)([C@@H](OC(=O)c4ccccc4)[C@H]21)C3(C)C [docetaxel] | % | 0.0343 |
